The origin of these recorded values is ChEMBL document CHEMBL5365533.

- Test system: DNA
- experimentalProtocol: Displacement of Ethidium bromide from A5T5 (5'-GGGAAAAATTTTTCCCCC-3') DNA (unknown origin)/EtBr complex assessed as decrease in initial absorbance of DNA by crystal violet staining based analysis
- Assay type: nucleic-acid assay
Class class 1: C50 at least 2 µM. Class class 0: C50 below 2 µM.

[
  {
    "smilesInput": "CN(C)c1ccc(C(=C2C=CC(=[N+](C)C)C=C2)c2ccc3cc(N(C)C)ccc3c2)cc1",
    "group": "class 0"
  },
  {
    "smilesInput": "CC1=CC(=[N+](C)C)C=CC1=C(c1ccc(N(C)C)cc1C)c1ccc(N(C)C)cc1C",
    "group": "class 1"
  },
  {
    "smilesInput": "CN(C)c1ccc(C(=C2C=CC(=[N+](C)C)C(c3ccccc3)=C2)c2ccc(N(C)C)c(-c3ccccc3)c2)cc1-c1ccccc1",
    "group": "class 1"
  },
  {
    "smilesInput": "CN(C)c1ccc(C(=C2C=CC(=[N+](C)C)C=C2)c2ccc(N(C)C)c(-c3ccccc3)c2)cc1",
    "group": "class 1"
  },
  {
    "smilesInput": "Cc1cc(N(C)C)cc(C)c1C(=C1C=CC(=[N+](C)C)C=C1)c1ccc(N(C)C)cc1",
    "group": "class 0"
  },
  {
    "smilesInput": "CN(C)c1ccc(C(=C2C=CC(=[N+](C)C)C=C2)c2ccc(N(C)C)c(-c3ccccc3)c2)cc1-c1ccccc1",
    "group": "class 0"
  }
]
